Each recorded value in this set is attributed to ChEMBL document CHEMBL5543121.

# measurement-description: AUC (0 to infinity) in Sprague-Dawley rat at 20 mg/kg, iv
# Assay type: ADME, organism-based
# condition-label: in vivo
measurement-kind: AUC(0-inf)
The number alone won't do; follow it with the unit.

Summary for this compound, CC1=C2CC[C@@](C)(O)[C@@H]2[C@H]2OC(=O)[C@@H](CN(C)C)[C@@H]2CC1 [ACT-001] : AUC(0-inf) is 5540 ng·h/mL

---

# measurement-description: Cmax in male Sprague-Dawley rat at 10 mg/kg, po by LC-MS/MS analysis
# Type: ADME, organism-based
# condition-label: in vivo
measurement-kind: Cmax (ng/mL)
Number in ng/mL, nothing else.

# Cmax of C[C@@]1(O)CC[C@]23O[C@@]2(C)CC[C@@H]2[C@H](OC(=O)[C@H]2CS(=O)(=O)c2c(Cl)cccc2Cl)[C@@H]13 = 114

---

# measurement-description: AUC (0 to infinity) in male Sprague-Dawley rat at 10 mg/kg, po by LC-MS/MS analysis
# Assay type: ADME, organism-based
# condition-label: in vivo
measurement-kind: AUC(0-inf) (ng·h/mL)
Write the number in ng·h/mL without appending the unit.

Given item C[C@@]1(O)CC[C@]23O[C@@]2(C)CC[C@@H]2[C@H](OC(=O)[C@H]2CS(=O)(=O)c2c(Cl)cccc2Cl)[C@@H]13 , the value recorded as its AUC(0-inf) is 182

---

# measurement-description: Cytotoxicity against mouse neutrophils assessed as cell viability at 40 uM relative to control
# Assay type: toxicity, cell-based, Neutrophil
# condition-label: mouse neutrophils, read-out: Activity
measurement-kind: viability at 40 µM (%)
Report the figure in % without appending any unit label.

Per the record, CC1=C2CC[C@@](C)(O)[C@@H]2[C@H]2OC(=O)[C@@H](CSc3ccncc3)[C@@H]2CC1 has viability at 40 µM of 57.2

Record CC1=C2CC[C@@](C)(O)[C@@H]2[C@H]2OC(=O)[C@@H](CSC3CCCCC3)[C@@H]2CC1 . Reported viability at 40 µM: 101

For CC1=C2CC[C@@](C)(O)[C@@H]2[C@H]2OC(=O)[C@@H](CSc3ccc(C)cc3)[C@@H]2CC1 the compound record lists viability at 40 µM as 70.6

Reported viability at 40 µM for COc1ccc(S(=O)(=O)C[C@@H]2C(=O)O[C@H]3[C@H]2CCC(C)=C2CC[C@@](C)(O)[C@@H]23)cc1 was 39.5

Form field viability at 40 µM, entry CC1=C2CC[C@@](C)(O)[C@@H]2[C@H]2OC(=O)[C@@H](CN(C)C)[C@@H]2CC1 : 27.6

Record CC1=C2CC[C@@](C)(O)[C@@H]2[C@H]2OC(=O)[C@@H](CSc3ccc(Cl)cc3Cl)[C@@H]2CC1 , field viability at 40 µM: 20.8

Lookup result for CC1=C2CC[C@@](C)(O)[C@@H]2[C@H]2OC(=O)[C@@H](C)[C@@H]2CC1 ; measured viability at 40 µM: 98.6

---

# measurement-description: Oral bioavailability in Sprague-Dawley rat
# Type: ADME, organism-based
# condition-label: in vivo
measurement-kind: bioavailability
Report the figure along with its unit, number first.

Per the record, CC1=C2CC[C@@](C)(O)[C@@H]2[C@H]2OC(=O)[C@@H](CN(C)C)[C@@H]2CC1 [ACT-001] has bioavailability of 50.8%

---

# measurement-description: Tmax in male Sprague-Dawley rat at 10 mg/kg, po by LC-MS/MS analysis
# Type: ADME, organism-based
# condition-label: in vivo
measurement-kind: Tmax (min)
Enter your answer as a number in min; do not include the unit.

According to the records, this compound C[C@@]1(O)CC[C@]23O[C@@]2(C)CC[C@@H]2[C@H](OC(=O)[C@H]2CS(=O)(=O)c2c(Cl)cccc2Cl)[C@@H]13 displays Tmax of 19.8

---

Exercise: for every item that follows, state its recorded viability at 40 µM.
# measurement-description: Cytotoxicity against mouse neutrophils assessed as cell viability at 40 uM relative to control
# Type: toxicity, cell-based, Neutrophil
# condition-label: mouse neutrophils, read-out: Activity
Form entry: value (%) — number only.

According to the records, this compound COc1ccc(S(=O)(=O)C[C@@H]2C(=O)O[C@H]3[C@H]2CC[C@]2(C)O[C@@]24CC[C@@](C)(O)[C@H]34)cc1 displays viability at 40 µM of 54.8

Lab note: CC1=C2CC[C@@](C)(O)[C@@H]2[C@H]2OC(=O)[C@@H](CSCCC(C)C)[C@@H]2CC1 gave viability at 40 µM of 101

Measured viability at 40 µM of Cc1ccc(S(=O)(=O)C[C@@H]2C(=O)O[C@H]3[C@H]2CC[C@]2(C)O[C@@]24CC[C@@](C)(O)[C@H]34)cc1 : 71.5

Record CC1=C2CC[C@@](C)(O)[C@@H]2[C@H]2OC(=O)[C@@H](CSc3c(Cl)cccc3Cl)[C@@H]2CC1 , field viability at 40 µM: 57.5

// viability at 40 µM value for C[C@@]1(O)CC[C@]23O[C@@]2(C)CC[C@@H]2[C@H](OC(=O)[C@H]2CS(=O)(=O)c2ccncc2)[C@@H]13 : 79.4

// recorded viability at 40 µM for CC1=C2CC[C@@](C)(O)[C@@H]2[C@H]2OC(=O)[C@@H](CSc3ccc(F)cc3)[C@@H]2CC1 : 74.6

Field viability at 40 µM (entry C[C@@]1(O)CC[C@]23O[C@@]2(C)CC[C@@H]2[C@H](OC(=O)[C@H]2CS(=O)(=O)c2ccc(F)cc2)[C@@H]13 ) reads 50.7

Documented viability at 40 µM of C[C@@]1(O)CC[C@]23O[C@@]2(C)CC[C@@H]2[C@H](OC(=O)[C@H]2CS(=O)(=O)c2ncccn2)[C@@H]13 : 55.5

What the record says about C[C@@]1(O)CC[C@]23O[C@@]2(C)CC[C@@H]2[C@H](OC(=O)[C@H]2CS(=O)(=O)c2ccc(Cl)cc2Cl)[C@@H]13 : viability at 40 µM is 74.9

GET /value?item= C[C@@]1(O)CC[C@]23O[C@@]2(C)CC[C@@H]2[C@H](OC(=O)[C@H]2C[S+]([O-])c2ccc(Cl)cc2Cl)[C@@H]13 (stereo in doubt; 23a) &field=viability at 40 µM returns 59.2

viability at 40 µM reported for this compound COc1ccc(SC[C@@H]2C(=O)O[C@H]3[C@H]2CCC(C)=C2CC[C@@](C)(O)[C@@H]23)cc1 : 88.8

Recorded viability at 40 µM (compound CC(C)CCS(=O)(=O)C[C@@H]1C(=O)O[C@H]2[C@H]1CC[C@]1(C)O[C@@]13CC[C@@](C)(O)[C@H]23 ): 68.7

Lab note: measured viability at 40 µM of C[C@@]1(O)CC[C@]23O[C@@]2(C)CC[C@@H]2[C@H](OC(=O)[C@H]2CS(=O)(=O)C2CCCCC2)[C@@H]13 was 76.2

viability at 40 µM in this record for CC1=C2CC[C@@](C)(O)[C@@H]2[C@H]2OC(=O)[C@@H](CSc3ccc(Cl)c(Cl)c3)[C@@H]2CC1 : 86.6

Please fill in: viability at 40 µM reported for C[C@@]1(O)CC[C@]23O[C@@]2(C)CC[C@@H]2[C@H](OC(=O)[C@H]2CS(=O)(=O)c2ccc(Cl)c(Cl)c2)[C@@H]13 = 65.2

Note to self: viability at 40 µM recorded for CC1=C2CC[C@@](C)(O)[C@@H]2[C@H]2OC(=O)[C@@H](CSc3ncccn3)[C@@H]2CC1 was 60.2

Documented viability at 40 µM of C[C@@]1(O)CC[C@]23O[C@@]2(C)CC[C@@H]2[C@H](OC(=O)[C@H]2CS(=O)(=O)c2c(Cl)cccc2Cl)[C@@H]13 : 81.5

According to the records, this compound CC1=C2CC[C@@](C)(O)[C@@H]2[C@H]2OC(=O)[C@@H](CS(=O)(=O)C3CCCCC3)[C@@H]2CC1 displays viability at 40 µM of 66.3

---

# measurement-description: Induction of apoptosis in mouse neutrophils assessed as live cells at 40 uM incubated for 16 hrs by Annexin V-FITC/PI staining based flow cytometry analysis (reference value: 46.6%)
# Format: toxicity, cell-based, Neutrophil
# condition-label: read-out: Activity
measurement-kind: viability at 16 h, 40 µM (%)
Kindly provide the numeric value in % only, without the unit symbol.

Summary for this compound, C[C@@]1(O)CC[C@]23O[C@@]2(C)CC[C@@H]2[C@H](OC(=O)[C@H]2CS(=O)(=O)c2c(Cl)cccc2Cl)[C@@H]13 : viability at 16 h, 40 µM is 38

---

# measurement-description: Induction of apoptosis in mouse neutrophils assessed as live cells at 20 uM incubated for 16 hrs by Annexin V-FITC/PI staining based flow cytometry analysis (reference value: 46.6%)
# Format: toxicity, cell-based, Neutrophil
# condition-label: read-out: Activity
measurement-kind: viability at 16 h, 20 µM (%)
Report only the number, with the unit % understood.

Documented viability at 16 h, 20 µM of C[C@@]1(O)CC[C@]23O[C@@]2(C)CC[C@@H]2[C@H](OC(=O)[C@H]2CS(=O)(=O)c2c(Cl)cccc2Cl)[C@@H]13 : 41.4
